# targetOfAssay: T1, RsAgo WT (Rhodobacter sphaeroides (ATCC 17025D-5), UniProt A4WYU7 1-777)
# T1 sequence: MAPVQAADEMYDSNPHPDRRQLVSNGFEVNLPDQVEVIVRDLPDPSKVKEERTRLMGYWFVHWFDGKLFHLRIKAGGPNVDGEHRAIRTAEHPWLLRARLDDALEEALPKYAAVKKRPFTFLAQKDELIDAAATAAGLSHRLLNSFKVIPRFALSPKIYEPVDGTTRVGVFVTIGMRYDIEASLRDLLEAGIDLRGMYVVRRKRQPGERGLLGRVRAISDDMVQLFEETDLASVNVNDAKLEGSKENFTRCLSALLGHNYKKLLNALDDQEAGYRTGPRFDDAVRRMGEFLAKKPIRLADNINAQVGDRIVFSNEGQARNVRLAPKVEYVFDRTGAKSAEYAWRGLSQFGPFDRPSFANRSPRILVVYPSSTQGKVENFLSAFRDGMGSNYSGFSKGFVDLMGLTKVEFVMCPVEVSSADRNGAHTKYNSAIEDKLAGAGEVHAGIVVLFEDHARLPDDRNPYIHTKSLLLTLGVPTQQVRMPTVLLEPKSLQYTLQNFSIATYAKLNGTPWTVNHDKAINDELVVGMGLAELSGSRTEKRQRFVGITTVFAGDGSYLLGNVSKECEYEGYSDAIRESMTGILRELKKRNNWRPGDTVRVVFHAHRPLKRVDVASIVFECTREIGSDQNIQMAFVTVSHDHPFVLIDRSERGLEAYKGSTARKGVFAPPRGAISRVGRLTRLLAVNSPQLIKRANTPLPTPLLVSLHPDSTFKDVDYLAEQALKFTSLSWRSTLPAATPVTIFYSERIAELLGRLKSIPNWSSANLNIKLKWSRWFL
# experimentDescription: fluorescence polarization; 5 mM Mg2+; FP: 20 mM HEPES-KOH pH 7.5, 200 mM NaCl, 5 mM MgCl2, 0.01 mg/ml E. coli total tRNA, 0.01% NP-40, 10 pM probe, 25 C; EMSA: 20 mM HEPES-KOH pH 7.5, 200 mM NaCl, 5
measurementLabel: pKd
// pKd: -log10(molar conc.)

Examples from the recorded data:
binder	experimentalValue
CUACAACCUACUACCUCG (ssRNA, 5'-phosphate) [5'C-RNA, FAM]	7.17
TTACAACCTACTACCTCG (ssDNA, 5'-phosphate) [5'P-DNA, FAM]	7.37
AUACAACCUACUACCUCG (ssRNA, 5'-phosphate) [5'A-RNA, FAM]	7.61
GUACAACCUACUACCUCG (ssRNA, 5'-phosphate) [5'G-RNA, FAM]	6.74
UUACAACCUACUACCUCG (ssRNA, 5'-phosphate) [5'P-RNA (5'U-RNA), FAM]	9.04

Next:
Exam item: Give the reported value of pKd for this record: UUACAACCUACUACCUCG (ssRNA, 5'-OH) [5'OH-RNA, FAM]
Marked response: 5.94

All values here come from paper PMC4919518.
